Property: hERG current change (%, negative = inhibition) at 1uM; scope: individual compounds
molecular target: human ether-à-go-go-related gene (hERG) potassium channel (human); experiment: primary screen, population patch clamp on CHO cells stably expressing hERG; higher = less effect of the substance
Sequence (Q12809 whole entry, looked up): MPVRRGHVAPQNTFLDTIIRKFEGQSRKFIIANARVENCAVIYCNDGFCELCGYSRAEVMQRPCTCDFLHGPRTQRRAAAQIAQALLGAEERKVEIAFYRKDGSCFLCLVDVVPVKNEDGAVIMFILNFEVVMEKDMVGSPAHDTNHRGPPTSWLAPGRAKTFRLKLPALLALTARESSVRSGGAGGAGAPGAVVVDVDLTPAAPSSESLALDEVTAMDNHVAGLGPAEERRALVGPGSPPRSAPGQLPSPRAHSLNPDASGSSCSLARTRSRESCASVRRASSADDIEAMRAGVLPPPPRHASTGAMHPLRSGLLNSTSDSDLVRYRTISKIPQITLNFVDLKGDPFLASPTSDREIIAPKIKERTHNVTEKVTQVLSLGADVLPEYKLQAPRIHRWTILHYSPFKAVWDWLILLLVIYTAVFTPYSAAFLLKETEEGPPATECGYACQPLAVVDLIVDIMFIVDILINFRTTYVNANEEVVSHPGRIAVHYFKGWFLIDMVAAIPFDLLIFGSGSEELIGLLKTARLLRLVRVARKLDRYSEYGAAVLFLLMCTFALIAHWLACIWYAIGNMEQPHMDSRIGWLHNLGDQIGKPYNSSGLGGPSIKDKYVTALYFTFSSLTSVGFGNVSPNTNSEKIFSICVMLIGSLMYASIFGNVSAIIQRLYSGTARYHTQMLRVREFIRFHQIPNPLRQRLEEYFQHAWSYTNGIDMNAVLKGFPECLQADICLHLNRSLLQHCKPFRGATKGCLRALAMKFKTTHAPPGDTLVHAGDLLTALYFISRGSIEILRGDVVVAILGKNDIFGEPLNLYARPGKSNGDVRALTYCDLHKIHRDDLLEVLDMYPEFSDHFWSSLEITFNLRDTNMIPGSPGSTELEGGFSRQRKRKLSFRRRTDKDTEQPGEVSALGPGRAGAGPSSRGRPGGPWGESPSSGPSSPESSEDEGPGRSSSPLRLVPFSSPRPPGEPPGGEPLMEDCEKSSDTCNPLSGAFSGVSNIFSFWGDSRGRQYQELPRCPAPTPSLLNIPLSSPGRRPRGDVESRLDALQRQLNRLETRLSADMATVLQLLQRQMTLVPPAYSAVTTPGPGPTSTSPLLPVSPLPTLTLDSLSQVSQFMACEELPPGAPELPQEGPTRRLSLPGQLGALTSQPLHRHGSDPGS
In all, about 310,000 compounds went through this assay and about 2,200 (0.71%) showed an effect of 50% or more. The effect is printed as a negative number. What follows is part of a selection rich in strong results, with near analogues and random picks from the rest.
Measured Property: hERG current change (%, negative = inhibition) at 1uM (%)

1) COc1ccc(NS(=O)(=O)c2ccc(NS(C)(=O)=O)cc2)cc1    6.82
2) CC(NC(=O)C(C)N1C(=O)c2cccc([N+](=O)[O-])c2C1=O)c1ccccc1 (stereo not shown)    14.9
3) CCOc1ccc(CCNC(=O)c2ccc(=O)[nH]c2)cc1OCC    4.91
4) COc1ccc(OC)c(NC(=O)c2cccc(N3C(=O)C4C5CCC(C5)C4C3=O)c2)c1 (stereo not shown)    2.22
5) COc1ccccc1N1CCN(C(=O)C(OC(C)=O)c2ccccc2)CC1 (stereo not shown)    11.8
6) CCOCCCNc1nc2c(C)cccn2c(=O)c1/C=C1\SC(=S)N(C(C)CC)C1=O (stereo not shown)    10.1
7) COc1ccc(NC(=O)CN2CCN(CC(=O)Nc3ccc(F)cc3)CC2)c(OC)c1    -83.3
8) CCOc1ccc(NC(=O)CN2CCN(CC(=O)Nc3ccc(OC)cc3OC)CC2)cc1    -58.2
9) COc1ccc(NC(=O)CN2CCN(CC(=O)Nc3ccccc3F)CC2)c(OC)c1    -19.6
10) COc1ccc(NC(=O)CN2CCN(c3ccc(F)cc3)CC2)cc1Cl    13.2
11) CCC(CC)NCCOC(=O)c1ccc([N+](=O)[O-])cc1    -3.41
12) Cc1cccc(C)c1NC(=O)c1c[nH]c2ccccc12    11.7
13) COc1ccc(NC(=O)CN2CCCN(S(=O)(=O)c3ccc(F)cc3)CC2)c(OC)c1    -8.18
14) COc1cccc(NC(=O)CN2CCN(c3ccc(F)cc3)CC2)c1    2.77
15) COC(=O)c1ccccc1NC(=O)CNc1cc(Cl)ccc1N1CCOCC1    -0.671
16) COc1ccc(NC(=O)CN2CCN(S(=O)(=O)c3ccc(F)cc3)CC2)cc1Cl    7.03

---

Property: hERG current change (%, negative = inhibition) at 1uM; scope: individual molecules
target: human ether-à-go-go-related gene (hERG) potassium channel (human); test: primary screen, population patch clamp on CHO cells stably expressing hERG; higher = less effect of the substance
The whole screen tested about 310,000 compounds, of which about 2,200 (0.71%) showed an effect of 50% or more. Effects have a minus sign here. Only a selection was taken, and strong results are over-represented in it overall.
Measured Property: hERG current change (%, negative = inhibition) at 1uM

1. COCCCN(Cc1ccco1)C(=O)Cn1ncc2c([nH]c3ccccc32)c1=O    -5.46%
2. O=C(CSc1nc2c(sc3ccccc32)c(=O)n1CCCN1CCOCC1)NCC1CCCO1 (stereo not drawn)    2.38%
3. O=C(CSc1nc2ccccc2c(=O)n1CCCO)NCc1ccccc1    -4.26%
4. COc1ccc(OCC(O)Cn2c(=N)n(CCN3CCCCC3)c3ccccc32)cc1.Cl (stereo not drawn)    -51.2%
5. Cc1cccc(OCC(O)Cn2c(=N)n(CCN3CCOCC3)c3ccccc32)c1.Cl (stereo not drawn)    -8.29%
6. Cl.N=c1n(CCN2CCCCC2)c2ccccc2n1CC(O)COc1ccccc1 (stereo not drawn)    -32.7%
7. Cc1cccc(OCC(O)Cn2c(=N)n(CCN3CCCCC3)c3ccccc32)c1.Cl (stereo not drawn)    -59.8%
8. CNC(=O)c1ccc(NC(=O)c2cc(S(=O)(=O)N3CCOCC3)ccc2N2CCCC2)cc1    13.5%
9. O=C(CSc1nc2c(sc3ccccc32)c(=O)n1CCO)NCc1ccco1    -1%
10. NC(=O)c1ccccc1NC(=O)c1cc(S(=O)(=O)N2CCCCC2)ccc1N1CCOCC1    -60.5%
11. CCN(CC)CCn1c(SCC(=O)NCc2ccco2)nc2c(sc3ccccc32)c1=O    -50.4%
12. CCOc1ccc(C(O)Cn2c(=N)n(CCN3CCCCC3)c3ccccc32)cc1.Cl (stereo not drawn)    -56%
13. COc1ccc(-c2cc3ccccc3n2CC(O)CN2CCC(C)CC2)cc1.O=C(O)C(=O)O (stereo not drawn)    -49.8%
14. O=C(Nc1ccccc1N1CCCC1)c1cc(S(=O)(=O)N2CCOCC2)ccc1Cl    -9.58%
15. O=C(Nc1ccccc1)c1cc(S(=O)(=O)N2CCCCC2)ccc1N1CCOCC1    12.6%
